Measured PBM E-score accompanies every entry in the list below.
Biological target: Stb5 (UniProt P38699)
Sequence: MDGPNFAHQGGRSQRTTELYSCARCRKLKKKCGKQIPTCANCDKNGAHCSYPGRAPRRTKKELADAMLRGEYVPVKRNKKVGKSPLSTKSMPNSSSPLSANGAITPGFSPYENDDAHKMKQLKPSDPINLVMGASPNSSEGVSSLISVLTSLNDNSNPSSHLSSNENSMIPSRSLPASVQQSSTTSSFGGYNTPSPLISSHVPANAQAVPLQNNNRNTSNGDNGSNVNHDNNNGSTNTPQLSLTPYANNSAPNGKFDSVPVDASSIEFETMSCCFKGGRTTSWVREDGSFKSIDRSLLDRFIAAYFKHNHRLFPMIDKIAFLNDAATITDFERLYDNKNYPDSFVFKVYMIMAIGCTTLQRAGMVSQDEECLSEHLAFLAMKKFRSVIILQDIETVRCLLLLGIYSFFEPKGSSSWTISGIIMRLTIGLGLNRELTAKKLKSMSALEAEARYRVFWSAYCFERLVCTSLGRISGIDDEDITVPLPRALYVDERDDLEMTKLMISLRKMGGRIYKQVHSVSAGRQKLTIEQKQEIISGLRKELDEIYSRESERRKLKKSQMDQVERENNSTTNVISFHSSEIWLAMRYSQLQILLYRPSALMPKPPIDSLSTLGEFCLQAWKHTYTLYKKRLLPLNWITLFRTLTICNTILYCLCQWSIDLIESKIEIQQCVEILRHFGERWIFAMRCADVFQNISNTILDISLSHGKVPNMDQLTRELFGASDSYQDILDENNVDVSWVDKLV
Assay: PBM E-score (8-mer binding enrichment) (E-score (-0.5 to 0.5)); higher = stronger / more preferred TF binding
Settings: protein concentration: 200 nM; construct: GST-full length
The full ranking holds about 33,000 sequences; the median of “E-score (-0.5 to 0.5)” is about -0.054, and the highest 2% start at about 0.35. Many of the other results were omitted from the sample, so the highest values are more common in it than they were.

- ITEM SEQUENCE: "GCCGACGA"
  PBM E-score: 0.308
- ITEM SEQUENCE: "AGTCCGAA"
  PBM E-score: 0.299
- ITEM SEQUENCE: "AAGCGGGG"
  PBM E-score: 0.296
- ITEM SEQUENCE: "CGTTGTCC"
  PBM E-score: -0.0582
- ITEM SEQUENCE: "AACGCCAC"
  PBM E-score: -0.0588
- ITEM SEQUENCE: "AACTAGCC"
  PBM E-score: -0.148
- ITEM SEQUENCE: "GGCGGTAA"
  PBM E-score: 0.385
- ITEM SEQUENCE: "ATGGCAAC"
  PBM E-score: -0.184
- ITEM SEQUENCE: "AGCTGTTC"
  PBM E-score: -0.207
- ITEM SEQUENCE: "GACGCCGA"
  PBM E-score: 0.342
- ITEM SEQUENCE: "TACGCCGA"
  PBM E-score: 0.299
- ITEM SEQUENCE: "GATGCAGC"
  PBM E-score: 0.0949
- ITEM SEQUENCE: "AACGCCGC"
  PBM E-score: 0.448
- ITEM SEQUENCE: "AGACGGTC"
  PBM E-score: 0.142
- ITEM SEQUENCE: "ACTCATAT"
  PBM E-score: -0.0119
- ITEM SEQUENCE: "GCCGACGC"
  PBM E-score: 0.316
- ITEM SEQUENCE: "AGCGACGG"
  PBM E-score: 0.245
- ITEM SEQUENCE: "AACGCCGT"
  PBM E-score: 0.437
- ITEM SEQUENCE: "CCGACAGC"
  PBM E-score: 0.341
- ITEM SEQUENCE: "CACGCCGC"
  PBM E-score: 0.293
- ITEM SEQUENCE: "AGGGAGAC"
  PBM E-score: -0.0822
- ITEM SEQUENCE: "AATGTGCA"
  PBM E-score: -0.241
- ITEM SEQUENCE: "GGTCCGAA"
  PBM E-score: 0.328
- ITEM SEQUENCE: "GGTCCGAC"
  PBM E-score: 0.411
- ITEM SEQUENCE: "TAGCTGCA"
  PBM E-score: -0.191
